Measured values drawn from patent US20160000860A1 for this set.

Target: T1, recombinant human osteogenic protein-1 (rhOP-1, rhBMP-7) (human, UniProt P18075 293-431)
T1 construct: Amine-coupled to a CM-5 sensor chip
T1 sequence (looked up): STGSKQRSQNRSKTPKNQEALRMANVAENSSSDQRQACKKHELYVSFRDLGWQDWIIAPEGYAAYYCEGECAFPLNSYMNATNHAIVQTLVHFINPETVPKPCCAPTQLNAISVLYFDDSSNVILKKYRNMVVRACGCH
Assay: SPR (Biacore X), ligand amine-coupled to CM-5 chip, Langmuir analysis
Method: The supernatant was decanted and used for analyses. Protein concentrations were determined using UV spectroscopy at an absorbance of 280 nm. Extinction coefficients were calculated using ProtParam tool (www.expasy.ch/tools/protparam.html). Flow rates ranged from 5 to 50 μl/min, and injection volumes were 20 to 100 μl. To ensure uniformity, an effort was made to react sufficient ligand to the chip to give a baseline value of about 2500 RU (response units). […]
Bridges are numbered along the chain shown (N, C = ends). Where no end group is shown, it is not given here.
readout_label: Kd (nM)
One number for each entry, in nM.

Query: Kd; subject: CRSTVRMSAEQVQNVWVRC (disulfide 1-19 (inferred), it is treated here as the same bovine cyclic peptide; also called cyclized BBP) [BMP Binding Peptide (BBP), cyclized synthetic 19 amino acid peptide]
Response: 1160
